Recorded values, source PubChem BioAssay (EPA / NIEHS).

# ASSAY OVERVIEW: CEETOX_H295R_OHPREG: CeeTox H295R High-throughput Steroidogenesis Assay for OH-Pregnenolone (OHPREG) (AID 2283434)
# CONDITION SUMMARY: actives raise or lower the signal
The source made the active and inactive calls. The calls were made as follows: active = hit-call score of the fitted dose curve at least 0.9, where 1 is the maximum; inactive = score below 0.9.
Write down the outcome that applies. Available outcomes: active, inactive

query: // outcome(item) with item = CCN(CC)c1nc(C)cc(OP(=S)(OC)OC)n1
result: inactive

query: What outcome does the record of this test show for COP(=S)(OC)Oc1ccc([N+](=O)[O-])c(C)c1 ?
result: inactive

query: Tell me the recorded outcome of this test for CCOc1nc(C(Cl)(Cl)Cl)ns1 .
result: inactive

query: Recorded call for Clc1nc(Cl)nc(Nc2ccccc2Cl)n1 ?
result: inactive

query: What did the test return for CN/C(=N\[N+](=O)[O-])NCc1cnc(Cl)s1 ?
result: inactive

query: // param item: N#CN=C1SCCN1Cc1ccc(Cl)nc1 ; yields the recorded call
result: active

query: Hey, what did the test say about Cc1c(COC(=O)[C@@H]2[C@H](/C=C(\Cl)C(F)(F)F)C2(C)C)cccc1-c1ccccc1 ?
result: inactive

query: Tell me the assay call for CC(C)Oc1cccc(NC(=O)c2ccccc2C(F)(F)F)c1 please.
result: inactive

query: Given CC(C)NC(=O)N1CC(=O)N(c2cc(Cl)cc(Cl)c2)C1=O , state the outcome it received in this test.
result: active

query: Which result was noted for this compound in the test: CCOC(=O)C(C)OC(=O)c1cc(Oc2ccc(C(F)(F)F)cc2Cl)ccc1[N+](=O)[O-] (configuration not stated)
result: inactive

query: Tell me the assay call for COc1cc(Cl)c(OC)cc1Cl please.
result: inactive

query: How did this test come out for CC1(C)C(C=C(Cl)Cl)C1C(=O)OC(C#N)c1cccc(Oc2ccccc2)c1 (configuration not stated) ?
result: inactive
